These measurements were taken from ChEMBL document CHEMBL3988442.

For each entry below, report its Percent Effect value.
- target-of-assay: Chromo domain-containing protein 1 (Saccharomyces cerevisiae (strain ATCC 204508 / S288c) (Baker's yeast))
- run-description: ScCHD-1 Enzyme Inhibition Assay; also: in the data most compounds retested in dose-response had high values
- Format: functional
- Set-up: scale not given: direction of the effect not stated beside the values
- test-parameters: 30 µM
Answers are plain numbers, in %.

// below: answered molecules
{"molecule": "O=C(O)[C@]12CCCN(Cc3ccncc3)[C@@H]1CCN(c1cnccn1)C2", "Percent Effect, %": -6.37}
{"molecule": "Cc1nn(C)c(C)c1C1COCCN1C(=O)c1cnc(N)c(Cl)c1 (centres undefined)", "Percent Effect, %": -7.54}
{"molecule": "O=C(NCc1cc[nH]n1)NCC(c1ccco1)N1CCCC1 (centres undefined)", "Percent Effect, %": -2.11}
{"molecule": "Cc1ccc(-c2cn[nH]c2C2CCCN(c3nccc(N)n3)C2)cc1 (centres undefined)", "Percent Effect, %": 3.03}
{"molecule": "Cc1cnn(CC2CCCCN2C(=O)c2cc(C(N)=O)cs2)c1 (centres undefined)", "Percent Effect, %": -0.902}
{"molecule": "Cc1ccc(OCCC(=O)N2CCN(c3cnccn3)CC2)cc1C", "Percent Effect, %": -6.5}
{"molecule": "O=C(c1ccc2c(c1)OCO2)N1CCCSCC1CN1CCCC1 (centres undefined)", "Percent Effect, %": -7.09}
{"molecule": "Cc1cccc(-c2ccc3nc(C4CCN(CC5CC5)CC4)nn3c2)c1", "Percent Effect, %": -2.92}

Each molecule below has a reported value. Please supply its Percent Effect.
1. O=C(NCc1nncn1-c1ccccc1)C1CC(=O)N(CC2CC2)C1 (centres undefined)
2. CCc1n[nH]c(C2CN(C(=O)c3ncoc3C(C)C)CCO2)n1 (centres undefined)
3. CNc1cccc(C2CCCN(C(C)=O)C2)n1 (centres undefined)
4. c1csc(-c2nc(CN3CCOC(Cn4cccn4)C3)co2)c1 (centres undefined)
5. CCc1nc(CN2CCCN(C(=O)c3c(C)noc3C)CC2)cs1

Result:
1: -2.19; 2: -8.96; 3: -14.4; 4: -11.2; 5: -3.62

Hi team, please reply with Percent Effect for each item in this list.
1. CC(NC(=O)NCCn1ccnc1)c1ccc2c(c1)NC(=O)CO2 (centres undefined)
2. CN1C[C@H]2CCN(C(=O)NC3CCCC3)CC[C@H]2S1(=O)=O
3. Cc1ccc(NC(=O)C2CSCN2C(=O)c2cnccn2)c(C)c1 (centres undefined)
4. CCS(=O)(=O)N1CCc2c(cccc2NC(=O)NCCOC)C1
5. CCn1cc(NC(=O)NCC(O)CN2CCc3ccccc3C2)cn1 (centres undefined)
6. O=C1COc2ccc(C(=O)NS(=O)(=O)c3ccc(F)cc3F)cc2N1
7. O=C(NCC1CC1)C1CSCN1S(=O)(=O)c1cccc(F)c1 (centres undefined)
8. CCc1n[nH]c(C2CN(C(=O)CCc3cccs3)CCO2)n1 (centres undefined)

Result:
1. -1.54
2. -5.65
3. -1.89
4. -5.11
5. -18.1
6. 6.46
7. -3.76
8. -38.8

* * *

- target-of-assay: Protein translocase subunit SecA (Escherichia coli (strain K12))
- run-description: Assay to Identify E. coli SecA ATPase Inhibitors
- Format: functional
- Parameters: scale not given: direction of the effect not stated beside the values
- test-parameters: 30 µM
Entries with a potency or affinity are not part of this list.
Assign Percent Effect to each entry below.
Reply with the number, then its unit.

{"compound": "Cc1cccc(-c2noc(CN3CCc4nn(C)c(=O)cc4C3)n2)c1", "target-of-assay": "Protein translocase subunit SecA (Escherichia coli (strain K12))", "Percent Effect": "-3.9%"}

I'm hoping you can list Percent Effect for every compound here, please.
1. COCCCNC(=O)CCn1nc(C)c2ccccc21
2. Cn1nnc2cc(C(=O)N3CCCC3Cc3ccccc3)ccc21 (stereo not drawn)
3. OC(COc1ccccc1)CN1CCc2c(ncn2C2CC2)C1 (stereo not drawn)
4. CCc1[nH]ncc1C(=O)N1CCCN(Cc2cnn(C(C)C)c2)CC1
5. CN(C)C(=O)COC[C@]12COC[C@H]1CN(Cc1ccoc1)C2
6. Cn1nc(CNC(=O)c2nc3ccccc3s2)c2c1CCOC2
7. Cc1cc(=O)n(CC(=O)NCC2CCCO2)c(-c2ccc(F)cc2)n1 (stereo not drawn)
8. Cn1ccc(C(=O)N2CCN(c3cc(C#N)ccn3)CC2)cc1=O

Result:
1: -3.61%; 2: -4.28%; 3: -6.24%; 4: -1.61%; 5: -2.44%; 6: -1.59%; 7: -8.1%; 8: -6.91%

Could I get Percent Effect for every one of these entries?
1. Cc1cnn(CC2CCCN2Cc2coc(-c3ccccc3)n2)c1 (stereo not drawn)
2. CNC(=O)C1CCN(C(=O)c2cccn2Cc2cccs2)CC1
3. Cn1cc(CN2CCOC3(CCCN(C(=O)c4ccco4)C3)C2)cn1 (stereo not drawn)
4. CCn1cc(CN2C[C@@H]3CCCN3C[C@@H]2CCSC)c(C)n1
5. COc1cccc(-n2nnc(C(=O)N3CCCC3)c2C)c1
6. c1ccc2oc(N3CCCCC3Cn3cncn3)nc2c1 (stereo not drawn)
7. COc1ccccc1OCC(=O)NS(=O)(=O)c1ccccc1Br

Result:
["0.182%", "-4.47%", "-4.16%", "-1.75%", "-0.683%", "-9.23%", "-3.71%"]

For each entry beneath this line, provide reported Percent Effect.
1. Cc1nn(C)c(C)c1C1CCCN1Cc1cccc(C(=O)N(C)C)c1 (stereo not drawn)
2. COc1ncccc1NC(=O)c1cccc(C)n1
3. CCc1nccn1C1CCCN(C(=O)c2cnn3ccc(C)nc23)C1 (stereo not drawn)

Result:
1. -2.08%
2. 3.56%
3. -3.42%

* * *

Would you kindly list Percent Effect for each of these compounds?
- target-of-assay: Sialic acid-binding Ig-like lectin 9 (Homo sapiens)
- run-description: Hs-Siglec9 ALPHAscreen SOP 20170721
- Set-up: scale not given: direction of the effect not stated beside the values
- test-parameters: 10 µM
Numbers only, in %.

{"compound": "COc1ccc(CN2CCn3cc(Cn4cccn4)nc3C2)cc1", "property-measured": "Percent Effect", "number": -3.88}
{"compound": "CC(C)c1ccc(-c2nnn(CCNS(C)(=O)=O)n2)cc1", "property-measured": "Percent Effect", "number": 2.29}
{"compound": "Cc1cc(C2CCCN2CCCc2nc3ccccc3o2)on1 (stereo not drawn)", "property-measured": "Percent Effect", "number": 0.643}
{"compound": "CC1CCCN(Cc2csc(-c3ncccn3)n2)CC1 (stereo not drawn)", "property-measured": "Percent Effect", "number": 18.6}
{"compound": "Cc1ncsc1CCC(=O)N1CCCC[C@H](N(C)C)C1", "property-measured": "Percent Effect", "number": 14.4}

Give Percent Effect for each listed item.
1. Cc1cc(C(=O)N2CCCCC2c2nc(C)cs2)[nH]n1 (stereo not drawn)
2. Cc1nc([C@@H]2C[C@@H]3CCN(C(=O)c4ccnnc4)C[C@H]3O2)sc1C
3. Cc1cnn(CC2CCCN2Cc2coc(-c3cccs3)n2)c1 (stereo not drawn)

Result:
1. -1.4
2. -0.581
3. -6.51

Would you mind giving Percent Effect for every compound in the list below?
1. CCc1nc(C2CCCN2C(=O)CCc2ccc3c(c2)OCO3)no1 (stereo not drawn)
2. O=C(NCCCN1CCOCC1)c1ccn(-c2ccc3ccccn23)n1
3. CCOCC1CN(Cc2cnn(C)c2)Cc2nn(C)cc21 (stereo not drawn)
4. CC(C)c1ncncc1C(=O)NCCN1CCCS1(=O)=O
5. CC(C)NC(=O)N1CCN(Cc2ccccn2)CC2(CC(=O)N(C)C2)C1 (stereo not drawn)
6. Cc1cnc(CN2CCOC(CNc3cccnn3)C2)cn1 (stereo not drawn)
7. CCc1ccc(O)c(C(=O)NC2CCN(Cc3ccncc3)CC2)c1

Result:
5.83
1.13
-4.11
-1.57
1.64
0.564
-9.09

Provide Percent Effect for all items below, preserving their order.
1. CC(Nc1cccc(CN2CCOC2=O)c1)C(=O)N1CCNC1=O (stereo not drawn)
2. CN(C)C(=O)CS(=O)(=O)Cc1cc(Cl)c2c(c1)OCCCO2
3. Cc1nn(C(C)C)c(C)c1NC(=O)c1ccccc1
4. c1ccc(OCCCN2CCN(c3ccc4nncn4n3)CC2)cc1
5. O=C1NC2(CCN(Cc3nccs3)CC2)CC1c1ccncc1 (stereo not drawn)
6. Cc1csc(CNC(=O)Nc2cc(C(F)(F)F)c[nH]c2=O)n1

Result:
1. 2.33
2. -11.3
3. 6.74
4. 15.6
5. 9.45
6. 2.89

* * *

- target-of-assay: Arginase-2, mitochondrial (Homo sapiens) (UniProt P78540)
- Sequence (P78540 whole entry): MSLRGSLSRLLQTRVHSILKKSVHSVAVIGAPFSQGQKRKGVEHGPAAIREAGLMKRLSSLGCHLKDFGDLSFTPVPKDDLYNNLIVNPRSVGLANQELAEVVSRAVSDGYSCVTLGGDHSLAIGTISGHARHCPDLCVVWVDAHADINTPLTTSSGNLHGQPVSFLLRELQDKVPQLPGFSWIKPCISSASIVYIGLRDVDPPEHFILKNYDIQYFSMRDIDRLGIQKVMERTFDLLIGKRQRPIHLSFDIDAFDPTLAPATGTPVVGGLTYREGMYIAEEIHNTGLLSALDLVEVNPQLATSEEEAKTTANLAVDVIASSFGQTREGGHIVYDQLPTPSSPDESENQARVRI
- run-description: in vitro enzyme assay to detect the production of urea directly proportional to the activity of Arginase II; also: in the data most compounds retested in dose-response had high values
- Assay type: functional
- Parameters: scale not given: direction of the effect not stated beside the values
- test-parameters: 33.3 µM
property-measured: Percent Effect (%)
Numbers only, in %.

Example cases with answers are listed next.
{"molecule": "COCC(=O)N1CC[C@@H](N2CCOCC2)[C@@H]1Cc1ccccc1", "Percent Effect / %": 13.8}
{"molecule": "COc1ccc(C[C@H]2CN(C(=O)CN(C)C)CC[C@H]2OC)cc1", "Percent Effect / %": 0}
{"molecule": "COc1cccc(-c2nc(CNCCn3cccn3)cs2)c1", "Percent Effect / %": 2.46}
{"molecule": "Cc1ccc(C(=O)N2Cc3c(CN4CCCCC4)nn(C)c3C2)cc1C", "Percent Effect / %": -4.86}
{"molecule": "O=C1NC2(CCN(Cc3cccnc3)CC2)CC1c1ccncc1 (centres undefined)", "Percent Effect / %": -0.405}

I would be grateful if you could provide Percent Effect for each of the following entries.
1. Cc1ccc(OC2(C(=O)O)CCN(C(=O)c3ccc(F)cc3)CC2)cn1
2. CC(C)N1CCC(CNCc2c[nH]nc2C(C)(C)C)C1 (centres undefined)
3. COC(=O)C(NC(=O)COC1CCCC1)c1cc(F)ccc1F (centres undefined)
4. CC(C)n1ccnc1C1CCN(C(=O)c2cc[nH]n2)CC1
5. CCc1nccn1C1CCCN(C(=O)Cc2n[nH]c3ccccc23)C1 (centres undefined)
6. Cc1cccc(-c2ccc3nc(C4CCN(CC5CC5)CC4)nn3c2)c1
7. Cc1nc(C)c(C(=O)NCCNc2ncccc2C#N)s1
8. CC(C)c1cc(C(F)(F)F)n2nc(CCC(=O)O)nc2n1

Result:
1: -1.05; 2: -14.4; 3: -7.83; 4: 14.3; 5: 3.66; 6: -0.399; 7: -5.94; 8: 2.65

For the 4 molecules below, give their Percent Effect values.
1. Cc1nn(-c2ccccc2)cc1C(=O)N1CCCC(n2cccn2)C1 (centres undefined)
2. Cc1nc(C)c(C(=O)N2CCCC2c2nnc3n2CCCCC3)s1 (centres undefined)
3. COc1ccc(NC(=O)c2ccc(-n3ncc(C#N)c3N)cc2)cn1
4. CCn1cc(NC(=O)C2CCN(CCOC(C)C)CC2)cn1

Result:
7.09
5.42
-4.94
-3.6

Provide the reported Percent Effect of each entry below, same order.
1. Cn1cccc1C(=O)N1CCCC2(CCCN2Cc2cccnc2)C1 (centres undefined)
2. CCc1ccc(O)c(C(=O)NC2CCN(Cc3ccncc3)CC2)c1

Result:
-6.88
1.64

Count: 5. Required value per item: Percent Effect.
1. CN(Cc1ccc(Cl)s1)C1CCCN(c2cccnn2)C1 (centres undefined)
2. O=C(NCC1COCc2c(-c3cccnc3)nnn2C1)c1cccs1 (centres undefined)
3. CCn1nc(C)c2ccn(CC(=O)NC3CCCC3)c(=O)c21
4. O=C(Nc1ccccc1)c1nn(C2CCS(=O)(=O)C2)c2c1CCCC2 (centres undefined)
5. CCN(Cc1ccccc1)C(=O)CN1CCCC(Cn2cncn2)C1 (centres undefined)

Result:
[15.4, -12.2, 0.645, -2.37, 2.16]
